Origin of values: ChEMBL document CHEMBL3352428

- protocol: Cmax in FVB mouse brain at 10 mg/kg, po administered as single dose
- Format: ADME, organism-based
- Set-up: dose 10 mg/kg, route oral
measurement-name: Cmax (µM)
Give bare numbers, in µM.

Below, each entry is followed by its recorded Cmax result.
Looking for the measured Cmax of C(=N/Nc1ccc(-c2cnco2)cc1)/c1ccncc1 , can you help?
0.46

Report Cmax for Cc1ccnc(Nc2nc(-c3ccc(-c4ccccn4)s3)cs2)c1 please.
1.62

The record that follows has no Cmax shown yet.
Name the recorded Cmax for Cc1cccc(Nc2nc(-c3ccc(-c4ccccc4)cc3)cs2)n1 .
2.45

---

- protocol: AUC in mouse brain at 10 mg/kg, po administered as single dose
- Format: ADME, organism-based
- Parameters: dose 10 mg/kg, route oral
- condition-notes: brain
measurement-name: AUC (µM·h)
One number for each entry, in µM·h.

Look up AUC: O=C(Nc1nc(-c2ccc(-c3ccccc3)cc2)cs1)C1CC1
18.6
